protocol_text: Metabolic stability in human liver microsomes
conditions_used: human, microsomes, pH 7.4, CLint, pooled human liver microsomes 0.5 mg/mL; substrate 1 μM; NADPH 1 mM; 37° C.; 0-45 min
Where a name gives a salt, the structure may show the parent alone.
Each entry gets no if its microsomal CLint at 1 μM stays under 10 µL/min/mg, and yes if its microsomal CLint at 1 μM is 10 µL/min/mg or above.

Look over these answered cases.
I'd appreciate it if you could say whether `Cl.[2H]C([2H])([2H])Oc1cc(Br)c(OC)cc1C([2H])([2H])C([2H])([2H])N` has microsomal CLint at 1 μM at least equal to 10 µL/min/mg.
yes

I'd appreciate it if you could say whether COc1cc(CCN)c(OC)cc1Br [2C-B HCl salt, 4-bromo-2,5-dimethoxyphenethylamine, reference compound] has microsomal CLint at 1 μM at least equal to 10 µL/min/mg.
no

I'd appreciate it if you could say whether `Cl.[2H]C([2H])([2H])Oc1cc(C([2H])([2H])C([2H])([2H])N)c(OC)cc1Br` has microsomal CLint at 1 μM at least equal to 10 µL/min/mg.
yes

I'd appreciate it if you could say whether `Cl.[2H]C([2H])(N)Cc1cc(OC([2H])([2H])[2H])c(Br)cc1OC` has microsomal CLint at 1 μM at least equal to 10 µL/min/mg.
yes

I'd appreciate it if you could say whether `Cl.[2H]C([2H])([2H])Oc1cc(Br)c(OC)cc1CCN` has microsomal CLint at 1 μM at least equal to 10 µL/min/mg.
yes

Next:
I'd appreciate it if you could say whether COc1ccc2c(c1)[C@]13CCCC[C@@H]1[C@H](C2)N(C)CC3 [dextromethorphan, reference compound] has microsomal CLint at 1 μM at least equal to 10 µL/min/mg.
yes

I'd appreciate it if you could say whether `Cl.[2H]C([2H])(N)Cc1cc(OC)c(Br)cc1OC([2H])([2H])[2H]` has microsomal CLint at 1 μM at least equal to 10 µL/min/mg.
yes

I'd appreciate it if you could say whether `Cl.[2H]C([2H])([2H])Oc1cc(CCN)c(OC)cc1Br` has microsomal CLint at 1 μM at least equal to 10 µL/min/mg.
no
